test-target: UniProtKB P31749
measurement-notes: Inactive Akt Alpha Screen Assay
experimental-context: non *labeled: Akt Alpha Screen assay; read-out: AKT1 biochemical assay, IC50
pIC50: −log10 of the molar value.
outcome-measure: pIC50

Reference set, count: 3
In [3]: df
Out[3]:
                                   molecule  measured
0  c1ccc(CCNC2(c3ccc(-c4nnc5n4-c4cccnc4Nc4ccccc4-5)cc3)CCC2)cc1 [Example 229]      5.42
1  O=C(Cc1ccccc1)N1CCN(Cc2ccc(-c3nnc4n3-c3cccnc3Nc3ccccc3-4)cc2)CC1 [Example 140]      5.22
2  COc1ccc(C(=O)N2CCN(Cc3ccc(-c4nnc5n4-c4cccnc4Nc4ccccc4-5)cc3)CC2)cc1 [Example 137]      5.85

A. COCCN(C)Cc1ccc(-c2nnc3n2-c2cccnc2Nc2ccccc2-3)cc1 [Example 77]
B. O=C(Nc1ccc(-c2nnc3n2-c2cccnc2Nc2ccccc2-3)cc1)c1ccc(-c2ccccc2)cc1 [Example 61]
Hey, between A and B which has a smaller measured pIC50? Give the label under which the chosen entry appears.
A
(A: 5.33, B: 6.11)

---

test-target: AKT1 (Homo sapiens (Human), UniProt P31749)
Sequence (P31749 whole entry): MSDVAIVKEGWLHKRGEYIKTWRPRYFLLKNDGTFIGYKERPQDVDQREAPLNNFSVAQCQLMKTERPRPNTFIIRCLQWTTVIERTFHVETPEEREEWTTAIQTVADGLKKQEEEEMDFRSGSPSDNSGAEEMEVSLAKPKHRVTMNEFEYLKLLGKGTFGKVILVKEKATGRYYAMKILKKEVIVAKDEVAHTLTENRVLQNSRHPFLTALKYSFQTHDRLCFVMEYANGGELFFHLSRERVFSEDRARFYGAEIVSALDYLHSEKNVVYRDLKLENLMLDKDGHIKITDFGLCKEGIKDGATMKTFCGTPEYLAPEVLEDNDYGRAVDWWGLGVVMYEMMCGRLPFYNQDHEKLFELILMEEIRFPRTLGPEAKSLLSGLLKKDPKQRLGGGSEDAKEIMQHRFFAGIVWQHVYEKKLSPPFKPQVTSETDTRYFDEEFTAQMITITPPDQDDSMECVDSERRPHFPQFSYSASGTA
measurement-notes: Inactive Akt Alpha Screen Assay
experimental-context: non *labeled: Akt Alpha Screen assay; read-out: AKT1 biochemical assay, IC50
outcome-measure: IC50 (µM)

1. O=C(Nc1ccc(-c2nnc3n2-c2cccnc2Nc2ccccc2-3)cc1)c1ccc2c(c1)OCO2 [Example 47]
2. O=C(Nc1ccc(-c2nnc3n2-c2cccnc2Nc2ccccc2-3)cc1)c1ccc(F)c(C(F)(F)F)c1 [Example 46]
3. c1ccc(-c2nnc(C3CCN(Cc4ccc(-c5nnc6n5-c5cccnc5Nc5ccccc5-6)cc4)CC3)o2)cc1 [Example 207]
4. O=C(c1ccco1)N1CCN(Cc2ccc(-c3nnc4n3-c3cccnc3Nc3ccccc3-4)cc2)CC1 [Example 92]
5. Cc1cc(COCc2ccc(-c3nnc4n3-c3cccnc3Nc3ccccc3-4)cc2)no1 [Example 185]
Please list the entries, largest IC50 first. Form field (ranking): labels in requested order.
2, 5, 4, 3, 1
(2: 5.3 µM, 5: 2.1 µM, 4: 1.4 µM, 3: 0.66 µM, 1: 0.053 µM)

---

Tested on: A2780
measurement-notes: MTS Assay, cell proliferation analysis (A2780)
Format: cell-based
experimental-context: Homo sapiens; A2780 cells; 72 hours; 10 Percent FBS
outcome-measure: IC50 (µM)

>>> print(df.to_string())
                            chemical_smiles  outcome_measure  measured
0  O=C(Nc1cccc(C(F)(F)F)c1)NC1CCN(Cc2ccc(-c3nnc4n3-c3cccnc3Nc3ccccc3-4)cc2)CC1             IC50         8

A. O=S(=O)(NC1CCN(Cc2ccc(-c3nnc4n3-c3cccnc3Nc3ccccc3-4)cc2)CC1)c1ccc2c(c1)OCCO2
B. Cc1ccc(C(=O)Nc2ccc(-c3nnc4n3-c3cccnc3Nc3ccccc3-4)cc2)cc1
C. O=C(Nc1ccc(-c2nnc3n2-c2cccnc2Nc2ccccc2-3)cc1)c1ccccc1
Exam item: list the entries in increasing order of IC50. Please list the labels according to the requested order.
B, A, C
(B: 6 µM, A: 15 µM, C: 32 µM)

1. NC1(c2ccc(-c3nnc4n3-c3cccnc3Nc3ccc(Br)cc3-4)cc2)CCC1
2. O=S(=O)(NC1(c2ccc(-c3nnc4n3-c3cccnc3Nc3ccccc3-4)cc2)CCC1)c1ccccc1
3. CN(C)c1ccc(C(=O)NCc2ccc(-c3nnc4n3-c3cccnc3Nc3ccccc3-4)cc2)cc1
4. NC1(c2ccc(-c3nnc4n3-c3cccnc3Nc3ccccc3-4)cc2)CCC1
Would you mind ranking these compounds by ascending IC50? Enter labels, ranked according to the request.
3, 2, 1, 4
(3: 6 µM, 2: 11 µM, 1: 16 µM, 4: 31 µM)

P. COc1cccc(C(=O)Nc2ccc(-c3nnc4n3-c3cccnc3Nc3ccccc3-4)cc2)c1
Q. Cc1cccc(S(=O)(=O)NCc2ccc(-c3nnc4n3-c3cccnc3Nc3ccccc3-4)cc2)c1
I'd appreciate it if you could identify which of P and Q has the greater IC50. Choose, then provide that item's label.
Q
(Q: 16 µM, P: 10 µM)

I. O=C(Nc1ccc(-c2nnc3n2-c2cccnc2Nc2ccccc2-3)cc1)c1ccc(F)cc1
II. ClCc1ccc(-c2nnc3n2-c2cccnc2Nc2ccccc2-3)cc1
Could you kindly indicate whether I or II has the higher IC50 value? Select an item and report its label.
I

These data points were gathered from patent US8541407B2.
